B1: DLC1 (parent)
chain: KRSWEEHVTHWMGQPFNSDDRNTA

variants of: B1; assay: protein stability index of a GFP-peptide fusion (GPS, HEK-293T) (PSI 1-6); higher = more stable; conditions: c terminus: a fixed tail appended;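 also: lentivirally expressed fusions sorted by FACS into six bins by GFP to DsRed ratio, PSI derived from sequencing read proportions per bin multiplied by bin number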
Kindly state protein stability index for each of the entries shown.
Numbers only.

Mutation Label	Property Name	Numeric Readout
W4Y	protein stability index	4.08

Provide protein stability index values for the following items, in order.
1. K1H
2. D19T

// result
2.69
2.4

# batch: return protein stability index for each of the 3 variants below
1. H7P
2. S18K
3. V8T

// result
1. 4.2
2. 3.12
3. 3.84

Lab note: each variant below needs its protein stability index filled in.
1. R2I
2. S3Q
3. W4H
4. T23G
5. R2M
6. G13K
7. R21E
8. W4S

// result
2.71
3.54
4.44
2.69
2.79
2.13
2.99
4.32

Hey, quick one: what's protein stability index for each of these?
1. P15S
2. S18V
3. D20I
4. F16G
5. F16R

// result
[2.3, 2.31, 2.54, 3.14, 2.27]

Give protein stability index for each listed item.
1. S3D
2. V8N
3. R21F

// result
4.33
4.13
1.95
